Form field: Neutralization IC50, H3-Vic75 (one value per entry).
target: HA of A/Victoria/3/75 (H3N2) (influenza A virus); experiment: cell-based or functional assay

BINDER	Neutralization IC50, H3-Vic75, µg/mL
Antibody 15 (antibody, V domains shown) VH: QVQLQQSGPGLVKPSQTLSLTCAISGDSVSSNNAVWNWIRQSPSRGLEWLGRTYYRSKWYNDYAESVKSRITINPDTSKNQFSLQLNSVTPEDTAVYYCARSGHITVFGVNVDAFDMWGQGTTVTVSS VL: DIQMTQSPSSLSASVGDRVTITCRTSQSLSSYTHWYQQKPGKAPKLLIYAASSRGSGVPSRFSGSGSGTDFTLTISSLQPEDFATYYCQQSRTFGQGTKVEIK	0.35
Antibody 13 (antibody, V domains shown) VH: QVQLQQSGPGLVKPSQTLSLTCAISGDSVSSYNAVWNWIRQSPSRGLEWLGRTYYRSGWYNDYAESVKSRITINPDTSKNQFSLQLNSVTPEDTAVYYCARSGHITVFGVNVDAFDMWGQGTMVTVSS VL: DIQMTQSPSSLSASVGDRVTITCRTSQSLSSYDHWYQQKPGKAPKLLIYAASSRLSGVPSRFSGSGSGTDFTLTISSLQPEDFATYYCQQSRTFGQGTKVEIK	0.43
Antibody 14 (antibody, V domains shown) VH: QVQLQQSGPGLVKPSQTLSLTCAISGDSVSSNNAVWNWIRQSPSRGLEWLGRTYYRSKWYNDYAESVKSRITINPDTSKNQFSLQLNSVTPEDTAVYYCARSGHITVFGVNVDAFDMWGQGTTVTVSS VL: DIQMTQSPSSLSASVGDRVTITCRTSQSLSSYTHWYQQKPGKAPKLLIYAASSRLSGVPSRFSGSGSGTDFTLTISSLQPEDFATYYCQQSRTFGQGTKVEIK	0.44
